Overview of recorded CC50 for various compounds
Test system: MT4
run.description: The compound was tested for its cytotoxic activity against HIV-1 replication in MT-4 cells, (50% cytotoxic concentration).
Type: functional, Homo sapiens
Design: unit not given here
metric.name: CC50

smiles.str	metric.name	measurement.qualifier	readout.number
CC(C)(C)OC(=O)N(CCCCCN1CCCN(CCCCCN(Cc2ccccc2)C(=O)OC(C)(C)C)CC[N+](CCCCCN(Cc2ccccc2)C(=O)OC(C)(C)C)(CCCCCN(Cc2ccccc2)C(=O)OC(C)(C)C)CCCN(CCCCCN(Cc2ccccc2)C(=O)OC(C)(C)C)CC1)Cc1ccccc1.Cc1ccc(S(=O)(=O)[O-])cc1	CC50	=	50
[Cl-].c1ccc(CNCCCCCN2CCCN(CCCCCNCc3ccccc3)CC[N+](CCCCCNCc3ccccc3)(CCCCCNCc3ccccc3)CCCN(CCCCCNCc3ccccc3)CC2)cc1	CC50	=	5
CC(C)(C)OC(=O)N(CCCCCN1CCCN(CCCCCN(Cc2ccccc2)C(=O)OC(C)(C)C)CCCN(CCCCCN(Cc2ccccc2)C(=O)OC(C)(C)C)CCN(CCCCCN(Cc2ccccc2)C(=O)OC(C)(C)C)CCC1)Cc1ccccc1	CC50	>	50
CC(C)(C)OC(=O)N(CCCCCN1CCCN(CCCCCN(Cc2ccccc2)C(=O)OC(C)(C)C)CCN(CCCCCN(Cc2ccccc2)C(=O)OC(C)(C)C)CCCN(CCCCCN(Cc2ccccc2)C(=O)OC(C)(C)C)CC1)Cc1ccccc1	CC50	>	10
c1ccc(CNCCCCCN2CCCN(CCCCCNCc3ccccc3)CCCN(CCCCCNCc3ccccc3)CCN(CCCCCNCc3ccccc3)CCC2)cc1	CC50	=	1
[Cl-].c1ccc(CNCCCCCN2CCCN(CCCCCNCc3ccccc3)CCN(CCCCCNCc3ccccc3)CCC[N+](CCCCCNCc3ccccc3)(CCCCCNCc3ccccc3)CCC2)cc1	CC50	=	10
C1CNCCNCCCN(CCCN2CCCNCCNCCCNCC2)CCNC1	CC50	>	100
c1ccc(CNCCCCCN2CCCN(CCCCCNCc3ccccc3)CCN(CCCCCNCc3ccccc3)CCCN(CCCCCNCc3ccccc3)CC2)cc1	CC50	=	10
CC(C)(C)OC(=O)N(CCCCCN1CCCN(CCCCCN(Cc2ccccc2)C(=O)OC(C)(C)C)CCN(CCCCCN(Cc2ccccc2)C(=O)OC(C)(C)C)CCC[N+](CCCCCN(Cc2ccccc2)C(=O)OC(C)(C)C)(CCCCCN(Cc2ccccc2)C(=O)OC(C)(C)C)CCC1)Cc1ccccc1.Cc1ccc(S(=O)(=O)[O-])cc1	CC50	=	10
